Reported Vd by item:
Assay: Volume of distribution at steady state in Sprague-Dawley rat at 0.05 mg/kg, iv
Format: ADME, organism-based
Design: dose 0.05 mg/kg, route intravenous
Conditions: in vivo, read-out: Vdss
Use L as the unit, but write only the number.

Below are worked cases with known answers.
[[record]]
compound = "O=C(N1CC[C@](c2cc(F)ccc2F)(S(=O)(=O)c2ccc(Cl)cc2)[C@H](O)C1)C1(C(F)(F)F)CC1 (racemic)"
result_units = "L"
assay_value = 1.65

[[record]]
compound = "Cn1cc(C(=O)N2CCC(c3cc(F)ccc3F)(S(=O)(=O)c3ccc(Cl)cc3)CC2)c(C(F)(F)F)n1"
result_units = "L"
assay_value = 11.3


Now, please, on to the next compound.
Item O=C(N1CCC(c2cc(F)ccc2F)(S(=O)(=O)c2ccc(Cl)cc2)CC1)C1(C(F)(F)F)CC1 has what recorded Vd?
3.1
